Tested on: HEK-293T
Assay: Multiplex assay against HEK293T
Type: toxicity, cell-based
Conditions: human, 48 h, 1 µM, compound concentration 1 uM, replicate 2
Collected Population Mitotic Cells (%) values appear next to each entry.
property: Population Mitotic Cells (%)

molecule: N[C@](CC1c2ccccc2Oc2ccccc21)(C(=O)O)[C@H]1C[C@@H]1C(=O)O
target.entity: HEK-293T
experimental.value: 82
--
molecule: COCCn1c(C)c(C)s/c1=N\C(=O)C1C(C)(C)C1(C)C
target.entity: HEK-293T
experimental.value: 55
--
molecule: COC(c1ccccc1)(c1ccccc1)[C@H](Oc1nc(C)cc(C)n1)C(=O)O [AMBRISENTAN]
target.entity: HEK-293T
experimental.value: 59
--
molecule: CC(C)(C)c1ccc(CSc2cnn(C(C)(C)C)c(=O)c2Cl)cc1 [PYRIDABEN]
target.entity: HEK-293T
experimental.value: 69
--
molecule: CN1CCC(C(=O)c2cccc(NC(=O)c3c(F)cc(F)cc3F)n2)CC1
target.entity: HEK-293T
experimental.value: 65
--
molecule: Cn1cc(C(=O)OCC2CCN(CCNS(C)(=O)=O)CC2)c2ccccc21
target.entity: HEK-293T
experimental.value: 55
--
molecule: COc1c(Nc2ccc(S(C)(=O)=O)nc2C)ncnc1OC1CCN(C(=O)OC(C)C)CC1 [ADP-597]
target.entity: HEK-293T
experimental.value: 63
--
molecule: COc1cc2nc(N3CCN(C(=O)COc4c(OC)cccc4C(C)C)CC3)nc(N)c2cc1OC.Cl.Cl
target.entity: HEK-293T
experimental.value: 88
--
molecule: CC(F)(F)CN1CCOc2c(nn(-c3ccccc3Cl)c2-c2ccc(Cl)cc2)C1=O
target.entity: HEK-293T
experimental.value: 74
--
molecule: COc1ccc2[nH]c(I)c(CCNC(C)=O)c2c1 [IODOMELATONIN]
target.entity: HEK-293T
experimental.value: 68
--
molecule: Cc1c(Cc2ccc3ccccc3n2)c2cc(F)ccc2n1CC(=O)O [TIMAPIPRANT]
target.entity: HEK-293T
experimental.value: 82
--
molecule: COc1cc2nc(N3CCN(C(=O)c4ccco4)CC3)nc(N)c2cc1OC.Cl [PRAZOSIN HYDROCHLORIDE]
target.entity: HEK-293T
experimental.value: 61
--
molecule: Nc1nc(-c2ccco2)c2cnn(Cc3ccccc3F)c2n1
target.entity: HEK-293T
experimental.value: 71
--
molecule: Cc1cc(NC(=O)NCCN2CCC(O)(Cc3ccccc3)CC2)c2ccccc2n1 [PALOSURAN]
target.entity: HEK-293T
experimental.value: 67
--
molecule: CC(C)C[C@H](CO)Nc1nc(S[C@@H](C)c2ccccc2)nc2nc(N)sc12 [AZD-8797]
target.entity: HEK-293T
experimental.value: 75
--
molecule: O=C(Nc1cc(-c2ccccc2)nn1-c1ccccc1F)c1ccc([N+](=O)[O-])cc1
target.entity: HEK-293T
experimental.value: 66
--
molecule: CCCCCCNC(=O)Nc1ccc(S(=O)(=O)Nc2ccc(CCNC[C@H](O)COc3ccc(O)cc3)cc2)cc1 [L-755507]
target.entity: HEK-293T
experimental.value: 84
--
molecule: COc1cc(Nc2ncc3c(n2)-c2ccc(Cl)cc2C(c2c(F)cccc2OC)=NC3)ccc1C(=O)O [ALISERTIB]
target.entity: HEK-293T
experimental.value: 42
--
molecule: CC(C)(O)C(=O)N1CCN(c2ccc(C(F)(F)F)c(C3=C(c4c[nH]c5ccccc45)C(=O)NC3=O)c2)CC1
target.entity: HEK-293T
experimental.value: 72
